These data points were gathered from patent US20210309657A1.

- method_notes: Lyophilisation solubility assay (LYSA)
- Format: physicochemical
- settings: aqueous buffer, thermodynamic from solid; 0.05 M phosphate buffer, pH 6.5; HPLC-UV; <1.0 = the detection limit; read-out: Lysa
measured_quantity: log10 solubility thermodynamic (log10 of the value in µg/mL)

# molecule, meas_value
records = [
    ("CCNc1cc(F)c(F)c2c1[nH]c1ncc(-c3cnc(OC)nc3)c(N3CCC(CN)C3)c12 (stereo not shown)", 1.92),
    ("CNc1cc(F)c(F)c2c1[nH]c1ncc(-c3cnc(OC)nc3)c(N3CCCC3CN)c12 (stereo not shown)", 2.74),
    ("CCNc1cc(F)c(F)c2c1[nH]c1ncc(-c3cnc(OC)nc3)c(N3CCC[C@@H](CN)C3)c12", 2.38),
    ("CNc1cc(F)c(F)c2c1[nH]c1ncc(-c3cnc(OC)nc3)c(N3CCC(F)(CN)C3)c12 (stereo not shown)", 1.94),
    ("CNc1cc(F)c(F)c2c1[nH]c1ncc(-c3cncc(C#N)c3)c(N3CCC(F)(CN)C3)c12 (stereo not shown)", 1.04),
    ("CNc1cc(F)c(F)c2c1[nH]c1ncc(-c3cnc(OC)nc3)c(N3CCC(CN)C3)c12 (stereo not shown)", 1.49),
    ("CNc1cc(F)c(F)c2c1[nH]c1ncc(-c3cnc(OC)nc3)c(N3CC4CC4(CN)C3)c12 (stereo not shown)", 1.87),
    ("CCNc1cc(F)cc2c1[nH]c1ncc(-c3cnc(C4(C(=O)O)CC4)nc3)c(N(C)C)c12", 2.11),
    ("CNc1cc(F)c(F)c2c1[nH]c1ncc(-c3cncc(C#N)c3)c(N3CCC(CN)C3)c12 (stereo not shown)", 1.66),
    ("CNc1cc(F)cc2c1[nH]c1ncc(-c3cncc(C#N)c3)c(N3CC[C@@H](N)C3)c12", 1.77),
    ("CNc1cc(F)c(F)c2c1[nH]c1ncc(-c3cncc(C#N)c3)c(N3CC[C@@H](N)C3)c12", 2.23),
    ("CCNc1cc(F)c(F)c2c1[nH]c1ncc(-c3cncc(C#N)c3)c(N3CCC(CN)C3)c12 (stereo not shown)", 1.59),
    ("CNc1cc(F)c(F)c2c1[nH]c1ncc(-c3cncc(C#N)c3)c(N3CC(CN)C(F)(F)C3)c12 (stereo not shown)", 1.20),
]

---

Entries and their solubility thermodynamic values follow.
- method_notes: Lyophilisation solubility assay (LYSA)
- Format: physicochemical
- settings: pH 6.5, aqueous buffer, thermodynamic from solid

# compound, solubility thermodynamic (µg/mL)
rows = [
    ("CNc1cc(F)c(F)c2c1[nH]c1ncc(-c3cncc(C#N)c3)c(N3C4CNCC3C4)c12 [Example 1.58]", 320),
    ("CNc1cc(F)cc2c1[nH]c1ncc(-c3cncc(C#N)c3)c(N3C4CNCC3C4)c12 [Example 1.60]", 53),
    ("CNc1cc(F)c(F)c2c1[nH]c1ncc(-c3cncc(C#N)c3)c(N3CC4CC(C3)N4)c12 [Example 1.44]", 270),
    ("CNc1cc(F)c(F)c2c1[nH]c1ncc(-c3cnc(OC)nc3)c(N3C4CNCC3C4)c12 [Example 1.57]", 91),
    ("CCOc1ncc(-c2cnc3[nH]c4c(NC)cc(F)cc4c3c2N2C3CNCC2C3)cn1 [Example 1.59]", 395),
    ("CNc1cc(F)cc2c1[nH]c1ncc(-c3cnc(OC)nc3)c(N3C4CNCC3C4)c12 [Example 1.61]", 62),
]
